pIC50: −log10 of the molar value.
UniProtKB P10415 pIC50 data
Sequence (P10415 whole entry): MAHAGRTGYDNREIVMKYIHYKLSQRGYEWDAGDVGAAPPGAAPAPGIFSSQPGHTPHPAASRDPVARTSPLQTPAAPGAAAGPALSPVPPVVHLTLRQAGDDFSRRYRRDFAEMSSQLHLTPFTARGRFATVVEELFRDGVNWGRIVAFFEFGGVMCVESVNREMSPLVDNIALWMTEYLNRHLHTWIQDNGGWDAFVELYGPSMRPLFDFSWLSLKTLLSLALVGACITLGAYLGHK

Take a look at these entries with their results.
CCCCN(CCCC)C(=O)c1cc(C)n(-c2ccc(NC(=O)NCc3ccccc3OC)cc2C(=O)N2Cc3ccccc3C[C@H]2CO)n1 = 7.11 to 7.14
CCCCN(CCCC)C(=O)c1cc(C)n(-c2ccc(NC(=O)Nc3ccc(Cl)cc3C)cc2C(=O)N2Cc3ccccc3C[C@H]2CO)n1 = 6.02 to 6.05

Okay, now this molecule:
Record lookup: for UniProtKB P10415, what pIC50 belongs to CCCCN(CCCC)C(=O)c1cc(C)n(-c2ccc(NC(=O)Nc3ccc(F)c(C(F)(F)F)c3)cc2C(=O)N2Cc3ccccc3C[C@H]2CO)n1 ?
5.49 to 5.52
